Where do these numbers come from? They come from the kinase profiling compilation of Christmann-Franck et al. (2016).

target_under_test: PLK1 (human)
method_summary: radiometric filter-binding kinase assay
assay_setup: compound 0.1 µM
assay_metric: residual activity (%)

Solved entries:
O=C(O)c1ccc(-c2c[nH]c3ncc(-c4ccccc4)cc23)cc1C1CCCC1 = 93
CCCCCc1ccc(/C=C/[C@H](O)[C@@H](CO)NC)cc1 = 106
CCc1cncnc1N1CCN(Cc2nc3cc(C(F)(F)F)ccc3[nH]2)CC1 = 98
Cc1ccc(Sc2cnc(Nc3cccc(Br)n3)s2)cc1C(=O)N1CCN(C(=O)CN)CC1 = 97
Cc1ccc(-c2ccc3c(ccc4sc5c(c43)NC[C@@H](C)NC5=O)n2)cn1 = 102

P = COc1ccc(-n2ncc3cnc(Nc4cc(OC)c(OC)c(OCCCN5CCN(C)CC5)c4)nc32)cc1
Q = CNC(=O)C1[C@H]2O[C@@](C)([C@@H]1N)n1c3ccccc3c3c4c(c5c6ccccc6n2c5c31)C(=O)NC4 (some centres undefined)
Please indicate which has the smaller reported residual activity: P , or Q . Please identify the chosen entry by its label.
Q
(Q: 38%, P: 90%)

* * *

target_under_test: NEK2 (human)
method_summary: radiometric filter-binding kinase assay
assay_setup: compound 10.0 µM
assay_metric: residual activity (%)

CCNc1nc(Nc2cc(F)c(C(=O)N3CCOCC3)cc2OC)ncc1C(F)(F)F = 92
CCOC(=O)c1ccc(N2NC(=O)/C(=C/c3ccc([N+](=O)[O-])o3)C2=O)cc1 = 125
FC(F)(F)c1ccc(-c2ccc(Oc3cncc4sc(-c5nn[nH]n5)cc34)cc2)cc1 = 113
CNc1nc(-c2ccc3c(N)n[nH]c3c2)cc(N2C[C@@H](C(=O)NC3CCCCC3)CC[C@H]2C)n1 = 91
N#Cc1c(C2CCNCC2)cc(-c2c(O)cccc2OCC2CC2)nc1N = 94

* * *

target_under_test: AURKB (human) (UniProt Q96GD4)
Sequence (Q96GD4 whole entry, looked up): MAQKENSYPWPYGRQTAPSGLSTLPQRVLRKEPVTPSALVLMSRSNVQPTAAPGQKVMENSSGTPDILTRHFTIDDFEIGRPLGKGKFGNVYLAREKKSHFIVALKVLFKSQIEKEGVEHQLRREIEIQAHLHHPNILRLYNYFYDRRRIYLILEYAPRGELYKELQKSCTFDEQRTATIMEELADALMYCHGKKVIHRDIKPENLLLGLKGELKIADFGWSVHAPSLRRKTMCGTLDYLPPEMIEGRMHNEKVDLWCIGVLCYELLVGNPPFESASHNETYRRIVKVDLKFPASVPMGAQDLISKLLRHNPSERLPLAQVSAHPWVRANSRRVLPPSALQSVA
method_summary: radiometric filter-binding kinase assay
assay_setup: compound 1.0 µM
assay_metric: residual activity (%)

CN1C(=O)[C@@H](Cc2c[nH]c3ccccc23)NC1=S = 104

P = Oc1ccc(/C=C/c2cc(O)cc(O)c2)cc1
Q = COc1ccc2c(c1)c1c3c(c4c5ccccc5n(C)c4c1n2CC(O)CN(C)C)C(=O)NC3=O (stereo unspecified)
I'm curious, which of these has a smaller residual activity number: P or Q ? Your answer should be the label attached to the chosen record.
Q
(Q: 14%, P: 97%)

* * *

target_under_test: TLK1 (human) (UniProt Q9UKI8)
Sequence (Q9UKI8 whole entry, looked up): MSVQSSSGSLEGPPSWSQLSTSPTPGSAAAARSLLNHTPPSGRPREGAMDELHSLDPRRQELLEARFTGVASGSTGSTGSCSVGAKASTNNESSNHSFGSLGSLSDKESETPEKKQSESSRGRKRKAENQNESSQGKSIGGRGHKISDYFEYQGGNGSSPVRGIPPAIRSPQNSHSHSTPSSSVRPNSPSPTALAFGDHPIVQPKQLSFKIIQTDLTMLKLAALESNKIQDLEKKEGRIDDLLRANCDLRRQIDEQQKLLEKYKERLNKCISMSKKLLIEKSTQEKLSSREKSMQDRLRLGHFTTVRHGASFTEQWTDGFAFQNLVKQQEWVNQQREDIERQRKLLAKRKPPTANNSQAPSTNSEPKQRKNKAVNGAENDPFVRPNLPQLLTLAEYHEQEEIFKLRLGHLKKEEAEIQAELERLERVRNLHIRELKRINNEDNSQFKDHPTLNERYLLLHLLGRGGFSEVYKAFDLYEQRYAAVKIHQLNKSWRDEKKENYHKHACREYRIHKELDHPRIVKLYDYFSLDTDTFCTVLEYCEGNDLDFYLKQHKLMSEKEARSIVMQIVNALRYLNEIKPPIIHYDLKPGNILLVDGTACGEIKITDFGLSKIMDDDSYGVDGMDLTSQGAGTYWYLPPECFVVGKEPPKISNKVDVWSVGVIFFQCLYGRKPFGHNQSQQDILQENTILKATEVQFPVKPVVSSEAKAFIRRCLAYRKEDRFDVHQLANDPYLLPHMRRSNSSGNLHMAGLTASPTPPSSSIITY
method_summary: radiometric filter-binding kinase assay
assay_setup: compound 0.1 µM
assay_metric: residual activity (%)

O=C(Nc1nc2cc(C(F)(F)F)cc(NC3CC3)n2n1)c1cccnc1 = 99
CCn1c(-c2nonc2N)nc2cncc(CNC3CCNCC3)c21 = 92
Cc1cc(NC(=O)c2cccc(NC(=O)/C=C/CN(C)C)c2)ccc1Nc1nccc(-c2cccnc2)n1 = 99
CN(C)C/C=C/C(=O)Nc1cccc(C(=O)Nc2ccc(Nc3nccc(-c4cccnc4)n3)cc2)c1 = 99
O=C(NCCCNc1nc(Nc2cccc(CN3CCOCC3)c2)ncc1C1CC1)C1CCC1 = 90
CC1=C(CO)C(=O)O[C@@H]([C@@H](C)[C@H]2CC[C@H]3[C@@H]4C[C@H]5O[C@]56[C@@H](O)C=CC(=O)[C@]6(C)C4CC[C@]23C)C1 (some centres undefined) = 101
NC(=O)c1cc(-c2ccnc(NC3CCCCC3)c2)nc(N2CCNCC2)c1 = 91
COc1ccc(-n2ncc3cnc(Nc4cc(OC)c(OC)c(OCCCN5CCN(C)CC5)c4)nc32)cc1 = 79
Cc1ccc(-c2ccc3c(ccc4sc5c(c43)NC[C@@H](C)NC5=O)n2)cn1 = 113
COc1ccc(N(C(=O)Nc2c(C)cccc2C)c2cc(Nc3ccc(N4CCN(C)CC4)cc3)ncn2)c(OC)c1 = 93

I = CN1CCN(CCOc2cc(OC3CCOCC3)c3c(Nc4c(Cl)ccc5c4OCO5)ncnc3c2)CC1
II = CNC(=O)C1[C@H]2O[C@@](C)([C@@H]1N)n1c3ccccc3c3c4c(c5c6ccccc6n2c5c31)C(=O)NC4 (some centres undefined)
Larger number for residual activity: I , or II ? Your answer should be the label attached to the chosen record.
I
